Just for reference, patent US10039759B2 is where these values come from.

- SYSTEM: Ba/F3-FGFR1-transfected cells (Homo sapiens, UniProt P11362, cells depend on it, form not given)
- Construct: other: minus IL3; 24 hours, Alamar Blue
- Sequence (P11362 whole entry, change not shown): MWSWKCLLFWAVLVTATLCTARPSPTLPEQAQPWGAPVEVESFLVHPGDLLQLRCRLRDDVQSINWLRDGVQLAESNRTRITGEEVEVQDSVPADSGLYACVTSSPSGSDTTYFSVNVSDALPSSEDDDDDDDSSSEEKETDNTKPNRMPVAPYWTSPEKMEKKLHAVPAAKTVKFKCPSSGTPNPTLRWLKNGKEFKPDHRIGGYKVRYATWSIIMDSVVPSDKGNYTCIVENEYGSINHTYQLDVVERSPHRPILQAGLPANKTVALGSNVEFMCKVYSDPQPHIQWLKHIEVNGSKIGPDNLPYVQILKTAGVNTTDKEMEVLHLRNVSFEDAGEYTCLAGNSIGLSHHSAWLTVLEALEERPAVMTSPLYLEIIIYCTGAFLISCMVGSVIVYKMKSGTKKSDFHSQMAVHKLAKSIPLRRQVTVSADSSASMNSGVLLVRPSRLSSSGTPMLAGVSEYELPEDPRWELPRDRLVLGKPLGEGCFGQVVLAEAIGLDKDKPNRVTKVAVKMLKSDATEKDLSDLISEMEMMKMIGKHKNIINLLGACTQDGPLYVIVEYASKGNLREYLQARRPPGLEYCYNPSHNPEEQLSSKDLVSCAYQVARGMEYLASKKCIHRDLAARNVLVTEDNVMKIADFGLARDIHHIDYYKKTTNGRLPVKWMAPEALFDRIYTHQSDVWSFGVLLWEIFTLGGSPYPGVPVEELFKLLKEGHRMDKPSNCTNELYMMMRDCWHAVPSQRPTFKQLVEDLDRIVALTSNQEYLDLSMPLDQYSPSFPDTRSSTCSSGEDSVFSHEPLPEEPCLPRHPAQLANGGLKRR
- PROCEDURE_DETAILS: Ba/F3-FGFR1 (minus IL3 or plus IL3) cellular proliferation assay, Alamar Blue
- Format: cell-based
- CONDITION_PARAMETERS: minus IL3, 24 hours
EXPERIMENTAL_ENDPOINT: BAF3-FGFR1 (MIN IL3 pIC50)

Summary for this compound, COc1cc(OC)cc(N(CC2CCN(c3nccc(OC)n3)C2)c2ccc3ncc(-c4cnn(C)c4)cc3c2)c1 (stereo not drawn) [Compound 7] : BAF3-FGFR1 (MIN IL3 pIC50) is <5

Summary for this compound, COc1cc(OC)cc(N(CCO)c2ccc3ncc(N4CCOCC4)cc3c2)c1 [Compound 54] : BAF3-FGFR1 (MIN IL3 pIC50) is <5

Summary for this compound, COc1cc(OC)cc(C(CC(N)=O)c2ccc3ncc(-c4cnn(C)c4)cc3c2)c1 (stereo not drawn) [Compound 40] : BAF3-FGFR1 (MIN IL3 pIC50) is <5

Summary for this compound, COc1cc(OC)cc(C(O)c2ccc3ncc(-c4cnn(C)c4)cc3c2)c1 (stereo not drawn) [Compound 12] : BAF3-FGFR1 (MIN IL3 pIC50) is <5.03

Summary for this compound, COc1cc(OC)cc(N(CC#Cc2nccc(OC)n2)c2ccc3ncc(-c4cnn(C)c4)cc3c2)c1 [Compound 16] : BAF3-FGFR1 (MIN IL3 pIC50) is >8

Summary for this compound, COc1cc(OC)cc(N(CCCN2CCCC2CNS(=O)(=O)C(F)(F)F)c2ccc3ncc(-c4cnn(C)c4)cc3c2)c1 (stereo not drawn) [Compound 47] : BAF3-FGFR1 (MIN IL3 pIC50) is ~8.03
